Origin of values: PubChem BioAssay AID248

Entries annotated with measured T/C
- Test system: L1210 leukemia ip in BDF1 mice, survival T/C
- procedure_text: NCI In Vivo Anticancer Drug Screen. Data for tumor model L1210 Leukemia (intraperitoneal) in B6D2F1 (BDF1) mice
- measurement_setup: endpoint: mean survival time; dose: 100.0 mg/kg/injection; schedule: Q04DX002 (ip); vehicle: Klucel (hydroxypropylcellulose) (HPC); higher = longer survival
Inconclusive results and toxic doses are left out.

Recorded T/C, per entry:
INSERT INTO measurements (molecule, system_name, result) VALUES
  ('Cc1cccc(NC(=O)/C=C/c2ccccc2)n1', 'L1210 leukemia ip in BDF1 mice, survival T/C', '91 % of control'),
  ('COc1ccc(NC(=O)c2ccco2)cc1', 'L1210 leukemia ip in BDF1 mice, survival T/C', '123 % of control'),
  ('CCCCCCCCCCCCC(=O)N(CC)CC', 'L1210 leukemia ip in BDF1 mice, survival T/C', '87 % of control'),
  ('C1CCc2c(c3c(c4c2CCCC4)CCCC3)C1', 'L1210 leukemia ip in BDF1 mice, survival T/C', '100 % of control'),
  ('NNC(=O)CNc1cccc(Cl)c1', 'L1210 leukemia ip in BDF1 mice, survival T/C', '101 % of control');

T/C recorded for this molecule, Nc1ccccc1SC(CC(=O)c1ccccc1)c1ccc(Cl)cc1 (stereo unspecified) , is 89 % of control

====

- Tested on: L1210 leukemia ip in BDF1 mice, survival T/C
- procedure_text: NCI In Vivo Anticancer Drug Screen. Data for tumor model L1210 Leukemia (intraperitoneal) in B6D2F1 (BDF1) mice
- measurement_setup: endpoint: mean survival time; dose: 400.0 mg/kg/injection; schedule: Q01DX009 (ip); vehicle: saline with Tween-80; higher = longer survival
Toxic doses and inconclusive results are not listed.
# T/C annotations

// below: answered compounds
INSERT INTO results (compound, result) VALUES
  ('NC(=O)c1cnc(N)nc1C(N)=O', '96 % of control'),
  ('OC(/C=C/c1ccccc1)C(O)/C=C/c1ccccc1 (stereo not drawn)', '111 % of control'),
  ('CCO/C=C1\SC(=S)N(c2cccc(OC)c2)C1=O', '117 % of control'),
  ('CCOC(=O)c1ccc2ccccc2c1', '89 % of control'),
  ('Cc1ccc(C)c(NC(=O)Nc2cc(C)on2)c1', '94 % of control'),
  ('CCOC(=O)Nc1cc(Cl)c(N)c(NC(=O)OCC)n1', '97 % of control'),
  ('Nc1cc(S(=O)(=O)c2ccc(O)c(N)c2)ccc1O', '109 % of control'),
  ('O=C(O)/C=C/c1ccc(/C=C/C(=O)O)cc1', '103 % of control'),
  ('OCC(O)COc1ccc(Cl)cc1 (stereo not drawn)', '94 % of control'),
  ('O=C(NCc1cnccn1)OCC(Cl)(Cl)Cl', '103 % of control');

Record COc1ccc(OC)c(NC(=O)OCCOc2ccccc2)c1 . Reported T/C: 100 % of control

# T/C of S=C(NC1CCCCC1)N1CCC(CCCC2CCN(C(=S)NC3CCCCC3)CC2)CC1 = 97 % of control

Record CCOC(=O)CCCc1c[nH]c2ccccc12 . Reported T/C: 102 % of control

====

- Tested on: L1210 leukemia ip in BDF1 mice, survival T/C
- procedure_text: NCI In Vivo Anticancer Drug Screen. Data for tumor model L1210 Leukemia (intraperitoneal) in B6D2F1 (BDF1) mice
- measurement_setup: endpoint: mean survival time; dose: 200.0 mg/kg/injection; schedule: Q04DX002 (ip); vehicle: saline; higher = longer survival
Toxic doses and inconclusive results are not listed.
Parameter T/C: see the listing below.

INSERT INTO assay_data (compound, system_name, result) VALUES
  ('NC(=S)N/N=C/c1c(Cl)[nH]c2ccccc12', 'L1210 leukemia ip in BDF1 mice, survival T/C', '98 % of control'),
  ('CN(C)CCS(=O)(=O)c1ccc(Cl)cc1', 'L1210 leukemia ip in BDF1 mice, survival T/C', '109 % of control'),
  ('CN(C)CCCN1CCC2(CC1)NC(=O)NC2=O', 'L1210 leukemia ip in BDF1 mice, survival T/C', '103 % of control'),
  ('CC(=O)c1cc(Cl)ccc1Cl', 'L1210 leukemia ip in BDF1 mice, survival T/C', '103 % of control'),
  ('C=CN1CCCC1=O', 'L1210 leukemia ip in BDF1 mice, survival T/C', '103 % of control'),
  ('CC(C)(C)SCCO', 'L1210 leukemia ip in BDF1 mice, survival T/C', '99 % of control');

Summary for this compound, Cc1cc(C)[nH]c(=S)n1 : T/C is 101 % of control

So, C[N+](C)(N)Cc1ccc(C[N+](C)(C)N)cc1 ? Its T/C was 97 % of control

Lookup result for CC=C1C(C(=O)O)C1C(=O)O (stereo not drawn) ; measured T/C: 107 % of control

response.value for Cc1c(NC(=O)OCc2ccccc2)no[n+]1[O-] (field: T/C) = 98 % of control

// T/C value for CC1N=C1c1ccccc1 (stereo not drawn) : 115 % of control

T/C reading for COc1ccc(CC(=O)c2ccccc2)cc1 : 95 % of control

Field T/C (entry COC1OC(CO)C(O)C1n1cnc2c(SC)ncnc21 (stereo not drawn) ) reads 104 % of control

====

- System: L1210 leukemia ip in BDF1 mice, survival T/C
- procedure_text: NCI In Vivo Anticancer Drug Screen. Data for tumor model L1210 Leukemia (intraperitoneal) in B6D2F1 (BDF1) mice
- measurement_setup: endpoint: mean survival time; dose: 400.0 mg/kg/injection; schedule: Q01DX001 (ip); vehicle: other; higher = longer survival
Inconclusive results and toxic doses are left out.
result_type: T/C

Use the examples below as a reference point.
INSERT INTO measurements (record_smiles, system_name, result_type, result) VALUES
  ('Oc1ccccc1C=NCCN=Cc1ccccc1O.[Zn+2]', 'L1210 leukemia ip in BDF1 mice, survival T/C', 'T/C', '100 % of control'),
  ('CCOCCNC1=C(Cl)C(=O)c2ccccc2C1=O', 'L1210 leukemia ip in BDF1 mice, survival T/C', 'T/C', '90 % of control'),
  ('CCNC(=O)N(O)C1(C#N)CCCCC1', 'L1210 leukemia ip in BDF1 mice, survival T/C', 'T/C', '98 % of control'),
  ('CCOC(=O)CN(CCN(CC)CC)c1ccc([N+](=O)[O-])cc1[N+](=O)[O-]', 'L1210 leukemia ip in BDF1 mice, survival T/C', 'T/C', '100 % of control');

The recorded T/C with L1210 leukemia ip in BDF1 mice, survival T/C for CC(=O)O[C@H]1CC[C@]2(C)C3=C([C@@H](OO)C[C@H]2C1(C)C)[C@]1(C)CC[C@H]([C@H](C)CCCC(C)C)[C@@]1(C)CC3 was 95 % of control

====

- Tested on: L1210 leukemia ip in BDF1 mice, survival T/C
- procedure_text: NCI In Vivo Anticancer Drug Screen. Data for tumor model L1210 Leukemia (intraperitoneal) in B6D2F1 (BDF1) mice
- measurement_setup: endpoint: mean survival time; dose: 400.0 mg/kg/injection; schedule: Q01DX001 (ip); vehicle: carboxymethylcellulose (CMC); higher = longer survival
Toxic doses and inconclusive results are not listed.
result_type: T/C

A selection of reference data follows.
INSERT INTO assay_data (compound, result) VALUES
  ('Cc1ccccc1NC(=O)NO', '105 % of control'),
  ('O=C(Nc1ccc(F)cc1)OCC1CCCO1 (stereo unspecified)', '92 % of control'),
  ('O=C(O)c1cc(O)ccc1N=Nc1ccccc1', '98 % of control'),
  ('O=C1OCC(C(=O)c2ccccc2)C1=Nc1ccccc1O (stereo unspecified)', '92 % of control');

Noted for CCOP(=O)(Nc1cc2c(cc1Cl)-c1ccccc1C2=O)OCC : its T/C reads 91 % of control

====

- Test system: L1210 leukemia ip in BDF1 mice, survival T/C
- procedure_text: NCI In Vivo Anticancer Drug Screen. Data for tumor model L1210 Leukemia (intraperitoneal) in B6D2F1 (BDF1) mice
- measurement_setup: endpoint: mean survival time; dose: 100.0 mg/kg/injection; schedule: Q01DX009 (ip); vehicle: saline with Tween-80; higher = longer survival
Inconclusive results and toxic doses are left out.
result_type: T/C

Some solved cases for reference:
INSERT INTO assay_data (molecule, result) VALUES
  ('COc1ccc(CN(N=O)c2ccc(C(=O)O)cc2)cc1', '91 % of control'),
  ('CCC(=O)c1cc([N+](=O)[O-])ccc1NC(C)=O', '97 % of control'),
  ('CCOCCC(=O)CC(=O)OC', '100 % of control');

# T/C (molecule: CC(=O)CC(C)=NCC(C)N=C(C)CC(C)=O (configuration not stated) ) is 89 % of control

Lab note: measured T/C of C(#CCN1CCCC1)CCCN1CCCC1 was 95 % of control

Data point: COC(=O)C(CSCSC)NC(=O)/C=C/c1ccc(C)cc1 (configuration not stated) ; T/C = 102 % of control

The molecule S=C(Nc1ccccn1)Nc1ccccn1 showed T/C equal to 103 % of control
